# Tested on: C. tropicalis
# ASSAY DETAILS: Toxicity tests of additional substrates (absorbance at 600 nm)
# Format: cell-based
# MEASUREMENT PARAMETERS: substrate concentration 0.5%, 24 hours, added without solvent
Listing of entries alongside the reported Absorbance at 600 nm.
Reply with just the number.

Before answering, review these 3 worked examples.
> print(dat)
                                   compound  numeric.value
1  CCCCCCC(CO)CCCC (stereo not shown) [2-Butyl-1-octanol]          8.973
2          CCCCCCc1ccsc1 [3-Hexylthiophene]          1.033
3  CCCCCCC(C)O (stereo not shown) [2-Octanol]          0.235

API: the following record is the query input.
Qu. Lab note: need Absorbance at 600 nm for CCCCCCOCCCCCC [Hexyl Ether, Dihexyl Ether] on C. tropicalis, anyone have it?
Ans. 13.21

Data origin, for the record: patent US7405063B2
